Could you please report measured Activity for the items listed next?
# targetOfAssay: Metabotropic glutamate receptor 7 (Rattus norvegicus) (UniProt P35400)
# Sequence (P35400 whole entry): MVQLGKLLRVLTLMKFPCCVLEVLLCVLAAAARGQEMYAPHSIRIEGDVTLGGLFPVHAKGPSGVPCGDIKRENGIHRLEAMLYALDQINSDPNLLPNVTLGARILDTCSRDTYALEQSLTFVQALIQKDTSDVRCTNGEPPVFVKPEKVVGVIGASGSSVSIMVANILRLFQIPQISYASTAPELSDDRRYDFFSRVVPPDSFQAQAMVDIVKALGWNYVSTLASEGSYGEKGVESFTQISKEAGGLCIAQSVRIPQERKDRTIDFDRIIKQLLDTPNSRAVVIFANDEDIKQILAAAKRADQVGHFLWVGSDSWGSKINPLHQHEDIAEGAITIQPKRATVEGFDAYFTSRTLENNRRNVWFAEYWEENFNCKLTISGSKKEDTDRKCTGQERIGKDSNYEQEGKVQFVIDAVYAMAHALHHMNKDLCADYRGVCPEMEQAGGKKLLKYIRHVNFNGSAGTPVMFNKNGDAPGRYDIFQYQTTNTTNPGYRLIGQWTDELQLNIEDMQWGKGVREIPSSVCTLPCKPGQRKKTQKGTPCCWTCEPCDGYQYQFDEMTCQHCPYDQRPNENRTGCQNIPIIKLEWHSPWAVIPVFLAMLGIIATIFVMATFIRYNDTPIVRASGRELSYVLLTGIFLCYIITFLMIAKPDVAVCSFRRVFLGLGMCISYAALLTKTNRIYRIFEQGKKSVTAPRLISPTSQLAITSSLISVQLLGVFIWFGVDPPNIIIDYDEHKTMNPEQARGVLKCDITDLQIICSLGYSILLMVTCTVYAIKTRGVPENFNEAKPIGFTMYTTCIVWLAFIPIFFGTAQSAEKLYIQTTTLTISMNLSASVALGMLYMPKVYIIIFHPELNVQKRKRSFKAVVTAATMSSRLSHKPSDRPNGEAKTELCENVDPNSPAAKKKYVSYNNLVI
# experimentSummary: Negative allosteric modulation of rat mGlu7 receptor expressed in HEK cells co-expressing Galpha15 assessed as minimum L-AP4 response by measuring reduction in calcium mobilization incubated for 142 secs prior to glutamate addition and after 120 secs treated with L-AP4 and measured after 40 secs by Fluo-4 AM dye based fluorescence assay relative to L-AP4
# Format: functional, cell-based
# Set-up: scale not given: the % may be the effect or the level left
# conditionNotes: filed as negative allosteric modulator, time 302.0 sec
Lab book: enter the figure in %, no units written.

Entry CCOC(=O)c1cnc2c(OC)cccc2c1N1CCN(c2cccnc2OC)CC1 : reported Activity = ?
10

Entry CCOC(=O)c1cnc2sccc2c1N1CCN(c2ccccc2OC)CC1 : reported Activity = ?
26

Entry CCOC(=O)c1cnc2c(OC)cccc2c1N1CCN(c2ccccc2F)CC1 : reported Activity = ?
12

Entry CCOC(=O)c1cnc2c(OC)cccc2c1C1CCN(c2ccccc2OC)CC1 : reported Activity = ?
41

* * *

Could you please report measured Activity for the items listed next?
# targetOfAssay: Metabotropic glutamate receptor 7 (Rattus norvegicus)
# experimentSummary: Negative allosteric modulation of rat mGlu7 receptor expressed in HEK cells co-expressing Galpha15 assessed as minimum L-AP4 response by measuring reduction in calcium mobilization incubated for 142 secs prior to glutamate addition and after 120 secs treated with L-AP4 and measured after 40 secs by Fluo-4 AM dye based fluorescence assay relative to L-AP4
# Format: functional, cell-based
# Design: scale not given: the % may be the effect or the level left
# conditionNotes: filed as negative allosteric modulator, time 302.0 sec
Lab book: enter the figure in %, no units written.

Entry CCOC(=O)c1cnc2c(OC)cccc2c1N1CCN(c2ccccc2C)CC1 : reported Activity = ?
41

Entry CCOC(=O)c1cnc2c(OC)cccc2c1-c1ccc(-c2ccccc2OC)cn1 : reported Activity = ?
6.8

Entry CCOC(=O)c1cnc2c(OC)cccc2c1-c1cnc(-c2ccccc2OC)c(OC)c1 : reported Activity = ?
3.6

Entry CCOC(=O)c1cnc2c(OC)cccc2c1-c1cc(F)c(-c2ccccc2OC)nc1OC : reported Activity = ?
24

Entry CCOC(=O)c1cnc2c(OC)cccc2c1C1CC2CC(C1)N2c1ccccc1OC (stereo not given) : reported Activity = ?
41

These entries and their values trace back to ChEMBL document CHEMBL4699482.
